# Tested on: Bacillus subtilis DB104 (SP-AmyQ fusion secretion)
# assay_text: AmyQ secretion efficiency, weighted average sort bin (1 = best secretion, 10 = worst) (bin number (weighted average, 1-10)); higher = lower secretion efficiency
property_measured: AmyQ secretion efficiency
// print number alone

Here is how some sequences turned out for AmyQ secretion efficiency.
INSERT INTO measurements (seq, target, property_measured, recorded_number) VALUES
  ('MKKVLMAFIICLSLILSVLAAPPSGIKAESV', 'Bacillus subtilis DB104 (SP-AmyQ fusion secretion)', 'AmyQ secretion efficiency', 3.36),
  ('MKKKLAAGLTASAIVGTTLVVTPPEAATI', 'Bacillus subtilis DB104 (SP-AmyQ fusion secretion)', 'AmyQ secretion efficiency', 5.33),
  ('MKVLLSALLLLLFAFEPSASMKKL', 'Bacillus subtilis DB104 (SP-AmyQ fusion secretion)', 'AmyQ secretion efficiency', 6.8),
  ('MNITIMSFVAVAALSTTAFGAHASAKEI', 'Bacillus subtilis DB104 (SP-AmyQ fusion secretion)', 'AmyQ secretion efficiency', 3.64),
  ('MKKSQYFIVFICFFVLFSRRKHKRRAAAADS', 'Bacillus subtilis DB104 (SP-AmyQ fusion secretion)', 'AmyQ secretion efficiency', 7.81),
  ('MFKKGYSSYRKRTFSLSLVLPLDGHAKAQEV', 'Bacillus subtilis DB104 (SP-AmyQ fusion secretion)', 'AmyQ secretion efficiency', 7.96);

Given the entry MKKKIVAGLAVSAVVGSSMAAEAKTI , report its measured AmyQ secretion efficiency.
5.65

====

# Tested on: Bacillus subtilis DB104 (SP-AmyQ fusion secretion)
# assay_text: AmyQ secretion efficiency, weighted average sort bin (1 = best secretion, 10 = worst) (bin number (weighted average, 1-10)); higher = lower secretion efficiency
property_measured: AmyQ secretion efficiency
// print number alone

Here is how some sequences turned out for AmyQ secretion efficiency.
INSERT INTO assay_data (seq, recorded_number) VALUES
  ('MRFTKVVGFLSVLGLAAKKKLTAQAEKA', 7.51),
  ('MKKLLAAGIIGLLTVSIASPSFYAEK', 7.71);

Given the entry MFNRLFRVCFLAALIMAFTLPNSVYAQKR , report its measured AmyQ secretion efficiency.
2.62

Given the entry MSTIWIGMLAAAVLLLMVPKVSLADAA , report its measured AmyQ secretion efficiency.
6.21

Given the entry MLCVMMLLFSAIASFPVSNQAKDQ , report its measured AmyQ secretion efficiency.
5.37

Given the entry MKRTWNVCLTALLSVLLVAGSVRRRRKRKHAEAKKP , report its measured AmyQ secretion efficiency.
8.2

Given the entry MKLSVKIAGVLTVAAAAMTAKMYDTAKGN , report its measured AmyQ secretion efficiency.
4.44

Given the entry MKRFLIGAGVAAVILSGWFIADHQTHGQEM , report its measured AmyQ secretion efficiency.
5.37

Given the entry MKKRLIAPMLLSAASLAFFAMSGSAQRAAY , report its measured AmyQ secretion efficiency.
6.9

Given the entry MKKKQVMLALTAAAGLGLTALHSAPATKAAPL , report its measured AmyQ secretion efficiency.
3.15

Given the entry MARRRRRKAAVIVIAALITFNVRNASPG , report its measured AmyQ secretion efficiency.
6.9

Given the entry MKKRLIAPMLLSAASLAFFAMSGSAQFAAY , report its measured AmyQ secretion efficiency.
6.43

Given the entry MKWMCSICCAAVLLAGGAMQAEAV , report its measured AmyQ secretion efficiency.
3.69

Given the entry MKWMCSICCAAVLLAGGAGQAEAV , report its measured AmyQ secretion efficiency.
3.36
